# procedure text: Microsomal stability
# Assay type: in vitro ADME, mouse
# protocol conditions: microsomes only, 5 min
// reported % remaining per item
Provide the reading as a plain figure in %.

INSERT INTO assay_data (structure_notation, outcome_measure, numeric_readout) VALUES
  ('CC[C@H](C)[C@H]1C(=O)N2CCC[C@@H]2C(=O)O[C@H](C(C)(C)C)C[C@@H](C)C[C@H](O)CC2=N[C@@H](CCC(=O)N[C@@H](Cc3ccc(OC)cc3)C(=O)N(C)[C@@H](C)C(=O)N1C)CS2', '% remaining', 60.50);

Query "CC[C@H](C)[C@H]1C(=O)N2CCC[C@@H]2C(=O)O[C@H](C(C)(C)C)C[C@@H](C)C[C@H](O)C(C)(C)C2=N[C@@H](CCC(=O)N[C@@H](Cc3ccc(OC)cc3)C(=O)N(C)[C@@H](C)C(=O)N1C)CS2" yields % remaining of 77.45

Query "CC[C@H](C)[C@H]1C(=O)N2CCC[C@@H]2C(=O)O[C@H](C(C)(C)C)C[C@@H](C)C[C@H](O)[C@H](C)C2=N[C@H](CCC(=O)N[C@@H](Cc3ccc(OC)cc3)C(=O)N(C)[C@@H](C)C(=O)N1C)CS2" yields % remaining of 71.40

Query "CC[C@H](C)[C@H]1C(=O)N2CCC[C@H]2C(=O)O[C@H](C(C)(C)C)C[C@@H](C)C[C@H](O)[C@H](C)C2=N[C@@H](CCC(=O)N[C@@H](Cc3ccc(OC)cc3)C(=O)N(C)[C@@H](C)C(=O)N1C)CS2" yields % remaining of 70.80
